Tested on: CCRIS mutagenicity, Ames/micronucleus/aberration tests
Assay overview: CCRIS mutagenicity studies
Condition info: Test System: AMES SALMONELLA TYPHIMURIUM; Strain/Indicator: TA98; Metabolic Activation: RAT, LIVER, S-9, AROCLOR 1254; Method: STANDARD PLATE
Active and inactive are the calls of the source. The rule behind the calls is not given here.
Pick one: 1.0 (active), 0.0 (inactive)

>>> qualitative_label("CCOC(=O)c1[nH]c2ccccc2c1N=Cc1cc(OC)c(OC)c(OC)c1")
0.0
>>> qualitative_label("N[C@@H](CS)C(=O)O")
1.0

Then this molecule:
Lookup: Per the records of this test, what outcome belongs to C=C(C)C(C)=O ?
Found: 0.0

Every entry's value here was drawn from PubChem BioAssay AID1259407.
